# credit: patent US5714494A

Test system: intestinal triglyceride absorption
assayRemarks: Inhibition of intestinal triglyceride absorption in vivo (rats)
Parameters: species or system male Wistar rats
testConditions: po, 2 h
Listed compounds paired with reported Absorption ED50 or % inhibition

Consider the following illustrative entries.
- compound: "Cn1c(=O)c2c(nc(CCc3ccccc3)n2Cc2ccc(C(C(=O)N[C@@H](CO)c3ccccc3)C3CCCC3)cc2)n(C)c1=O (stereo partly drawn)"
  Absorption ED50 or % inhibition: "> 6 mg/kg"
- compound: "Cn1c(=O)c2c(nc(-c3ccsc3)n2Cc2ccc(C(C(=O)N[C@@H](CO)c3ccccc3)C3CCCC3)cc2)n(C)c1=O (stereo partly drawn)"
  Absorption ED50 or % inhibition: "< 2 mg/kg"

Field: next compound
Data request: Please report the measured Absorption ED50 or % inhibition for Cn1c(=O)c2c(nc(-c3ccc(Cl)cc3)n2Cc2ccc(C(C(=O)N[C@@H](CO)c3ccccc3)C3CCCC3)cc2)n(C)c1=O (stereo partly drawn)
Data returned: > 3 mg/kg
